Tested on: HepG2
Experiment: Cytotoxicity against human HepG2 cells assessed as reduction in cell viability incubated for 48 hrs by MTT assay
Type: functional, cell-based
Conditions: HepG2, 48 h
pIC50: −log10 of the molar value.
PARAMETER MEASURED: pIC50

{"INPUT SMILES": "C[n+]1nn(Cc2ccc(C(F)(F)F)cc2)c2c1C[C@]1(C)[C@H]3CC[C@@H]4[C@H]5[C@H]6OC[C@@]5(CCC6(C)C)CC[C@@]4(C)[C@]3(C)CC[C@H]1C2(C)C", "OBSERVED VALUE": 5.60}
{"INPUT SMILES": "C[n+]1nn(Cc2cccc(Cl)c2)c2c1C[C@]1(C)[C@H]3CC[C@@H]4[C@H]5[C@H]6OC[C@@]5(CCC6(C)C)CC[C@@]4(C)[C@]3(C)CC[C@H]1C2(C)C", "OBSERVED VALUE": 5.57}
{"INPUT SMILES": "C[n+]1nn(Cc2ccc(Cl)c(Cl)c2)c2c1C[C@]1(C)[C@H]3CC[C@@H]4[C@H]5[C@H]6OC[C@@]5(CCC6(C)C)CC[C@@]4(C)[C@]3(C)CC[C@H]1C2(C)C", "OBSERVED VALUE": 5.53}

###

Test system: HepG2
Assay: Cytotoxicity against human HepG2 cells assessed as reduction in cell viability incubated for 48 hrs by MTT assay
Assay type: functional, cell-based
Conditions: HepG2, 48 h
pIC50: −log10 of the molar value.
Reported pIC50 by item:
PARAMETER MEASURED: pIC50

{"INPUT SMILES": "CC1(C)CC[C@]23CC[C@]4(C)[C@H](CC[C@@H]5[C@@]6(C)Cc7nnn(Cc8ccccc8Cl)c7C(C)(C)[C@@H]6CC[C@]54C)[C@H]2[C@H]1OC3", "OBSERVED VALUE": 4.25}
{"INPUT SMILES": "CCCCn1nnc2c1C(C)(C)[C@@H]1CC[C@]3(C)[C@H](CC[C@@H]4[C@H]5[C@H]6OC[C@@]5(CCC6(C)C)CC[C@]43C)[C@@]1(C)C2", "OBSERVED VALUE": 4.97}
{"INPUT SMILES": "COc1cccc(CCn2n[n+](C)c3c2C(C)(C)[C@@H]2CC[C@]4(C)[C@H](CC[C@@H]5[C@H]6[C@H]7OC[C@@]6(CCC7(C)C)CC[C@]54C)[C@@]2(C)C3)c1", "OBSERVED VALUE": 5.57}

###

Tested on: HeLa
Assay: Cytotoxicity against human HeLa cells assessed as reduction in cell viability incubated for 48 hrs by MTT assay
Type: functional, cell-based
PARAMETER MEASURED: IC50 (µM)

{"INPUT SMILES": "C[n+]1nn(Cc2ccc(C(F)(F)F)cc2)c2c1C[C@]1(C)[C@H]3CC[C@@H]4[C@H]5[C@H]6OC[C@@]5(CCC6(C)C)CC[C@@]4(C)[C@]3(C)CC[C@H]1C2(C)C", "OBSERVED VALUE": 3.06}
{"INPUT SMILES": "COc1cccc(Cn2n[n+](C)c3c2C(C)(C)[C@@H]2CC[C@]4(C)[C@H](CC[C@@H]5[C@H]6[C@H]7OC[C@@]6(CCC7(C)C)CC[C@]54C)[C@@]2(C)C3)c1", "OBSERVED VALUE": 2.33}
{"INPUT SMILES": "COc1ccccc1CCn1nnc2c1C(C)(C)[C@@H]1CC[C@]3(C)[C@H](CC[C@@H]4[C@H]5[C@H]6OC[C@@]5(CCC6(C)C)CC[C@]43C)[C@@]1(C)C2", "OBSERVED VALUE": 33.9}
